All figures here come from paper PMC11784839.

biological target: tau (Homo sapiens, UniProt P10636); assay: MCE Phenols Library screening, tau biosensor cell seeding assay (AvZ); type: cell-based; settings: raw puncta, replicate 2
Sequence (P10636 623-695 limits assumed): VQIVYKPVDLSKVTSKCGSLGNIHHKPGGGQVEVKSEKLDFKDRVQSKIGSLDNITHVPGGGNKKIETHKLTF
assay.endpoint: raw data 2

Observe how each entry below is paired with its result.
C[C@@H]1O[C@@H](O[C@@H]2[C@@H](O)[C@H](O)[C@@H](CO)O[C@H]2c2c(O)cc(O)c3c(=O)cc(-c4ccc(O)cc4)oc23)[C@H](O)[C@H](O)[C@H]1O [Vitexin-2"-O-rhamnoside] : 4728.59
CC(C)=CCc1c(O)cc2oc3cc(O)c(O)c(CC=C(C)C)c3c(=O)c2c1O : 11577.2
CC(C)=CCc1c(-c2ccc(O)cc2O)oc2c3c(cc(O)c2c1=O)OC(C)(C)C=C3 : 9499.74

Q. Retrieve raw data 2 on tau (Homo sapiens, UniProt P10636); query OCCc1ccc(O)c(O)c1 [Hydroxytyrosol]
A. 6672.58

Q. Report the value of raw data 2 obtained on tau (Homo sapiens, UniProt P10636) for "O=c1c(O[C@@H]2O[C@H](CO)[C@@H](O)[C@H](O)[C@H]2O)c(-c2ccc(O)c(O)c2)oc2cc(O)cc(O)c12" .
A. 3751.47

Q. For tau (Homo sapiens, UniProt P10636), give the measured raw data 2 of the entry "COc1cc(C=O)cc(OC)c1O"
A. 4454.92

Q. Give raw data 2 for O=C1c2c(O)cccc2C([C@@H]2O[C@H](CO)[C@@H](O)[C@H](O)[C@H]2O)c2cc(CO)cc(O)c21 (some centres unmarked) [Aloin(mixture of A&B)] tested on tau (Homo sapiens, UniProt P10636).
A. 9223.26

Q. Please report the measured raw data 2 for "COc1cc(/C=C/C(=O)O)ccc1O" tested on tau (Homo sapiens, UniProt P10636).
A. 9068.99

Q. // fetch raw data 2; item: COc1cc(O)c2c(=O)cc(-c3ccc(O)c(O)c3)oc2c1 [Hydroxygenkwanin] ; system: tau (Homo sapiens, UniProt P10636)
A. 7505.79

Q. Fill in: raw data 2 on tau (Homo sapiens, UniProt P10636), entry "COc1cc(O)cc(/C=C/c2ccc(O)cc2)c1"
A. 5245.02

Q. Give tau (Homo sapiens, UniProt P10636) raw data 2 for the following compound: "COc1cc2c(=O)c(-c3ccc(O)cc3)coc2cc1O[C@@H]1O[C@H](COC(C)=O)[C@@H](O)[C@H](O)[C@H]1O"
A. 10263.4

Q. Specify raw data 2 for O=C(O[C@H](Cc1ccc(O)c(O)c1)C(=O)O)C1=Cc2cc(O)c(O)cc2[C@H](c2ccc(O)c(O)c2)[C@H]1C(=O)OC(Cc1ccc(O)c(O)c1)C(=O)O (stereo in doubt) , system tau (Homo sapiens, UniProt P10636).
A. 10264.2

Q. With tau (Homo sapiens, UniProt P10636) as the test system, provide measured raw data 2 for this compound: OC[C@H]1O[C@@H](Oc2cc(O)ccc2/C=C/c2cc(O)cc(O)c2)[C@H](O)[C@@H](O)[C@@H]1O [Oxyresveratrol 2-O-?-D-glucopyranoside]
A. 13271.6

Q. Consider the compound O=C1c2cc(CO)cc(O)c2C(=O)c2c(O[C@@H]3O[C@H](CO)[C@@H](O)[C@H](O)[C@H]3O)cccc21 [Aloe-emodin-8-O-?-D-glucopyranoside] tested on tau (Homo sapiens, UniProt P10636); state its raw data 2.
A. 12078.3
